- measurement.target: adenosine kinase
- method.notes: AK inhibition (adenosine kinase activity, [U-14C] adenosine)
- recorded.conditions: 0.5 μM adenosine, 1 mM ATP, pH 7.0, 20 min; pig heart or recombinant human enzyme
Parameter: IC50. Scope: all listed entries.
measurement.label: IC50 (nM)

1. C[C@H]1O[C@@H](n2cc(-c3ccccc3)c3c(Nc4cc(F)cc(F)c4)ncnc32)[C@H](O)[C@@H]1O ... 1
2. CCOC(=O)Cc1ccc(Nc2ncnc3c2c(-c2ccccc2)cn3[C@@H]2O[C@H](C)[C@@H](O)[C@H]2O)cc1 ... 2
3. C[C@H]1O[C@@H](n2cc(-c3cccc([N+](=O)[O-])c3)c3c(Nc4ccc(F)cc4)ncnc32)[C@H](O)[C@@H]1O ... 28
4. C[C@H]1O[C@@H](n2cc(-c3ccccc3)c3c(Nc4ccc(F)cc4)ncnc32)[C@H](O)[C@@H]1O ... 11
5. COc1ccc(Nc2ncnc3c2c(-c2ccccc2)nn3[C@@H]2O[C@H](CN=[N+]=[N-])[C@@H](O)[C@H]2O)cc1 ... 8
6. COc1ccc(-c2nn([C@@H]3O[C@H](CN=[N+]=[N-])[C@@H](O)[C@H]3O)c3ncnc(Nc4ccccc4)c23)cc1 ... 3
7. C[C@H]1O[C@@H](n2nc(-c3ccccc3)c3c(Nc4ccc(Cl)cc4)ncnc32)[C@H](O)[C@@H]1O ... 11
8. COc1ccc(Nc2ncnc3c2c(-c2ccccc2)nn3[C@@H]2O[C@H](C)[C@@H](O)[C@H]2O)cc1 ... 17

---

- Tested on: liver enzymes and total bilirubin in female SA rats
- method.notes: Liver toxicity (serum liver enzymes and bilirubin)
- Format: in vivo
- recorded.conditions: rat, 2 x 37.5 μmole/kg iv infusion, 12 h after second dose; vehicle 80 ±10
Entries annotated with measured SGPT
measurement.label: SGPT

1) C[C@H]1O[C@@H](n2cc(-c3ccccc3)c3c(Nc4ccc(NC(=O)C(F)(F)F)cc4)ncnc32)[C@H](O)[C@@H]1O ... 54 IU/L
2) NC[C@H]1O[C@@H](n2nc(Br)c3c(N)ncnc32)[C@H](O)[C@@H]1O [REF. B, reference compound] ... 41 IU/L
3) C[C@H]1O[C@@H](n2cc(I)c3c(N)ncnc32)[C@H](O)[C@@H]1O [REF. A, reference compound] ... 76 IU/L
4) C[C@H]1O[C@@H](n2cc(-c3cccc(N)c3)c3c(Nc4ccc(F)cc4)ncnc32)[C@H](O)[C@@H]1O ... 65 IU/L

---

Carrageenan Paw (% inh) po overview
- System: carrageenan paw swelling in rats
- method.notes: Anti-inflammatory activity, carrageenan paw swelling
- Format: in vivo
- recorded.conditions: rat, 10 mg/kg po, 1 h before carrageenan, swelling after 3 hours
measurement.label: Carrageenan Paw (% inh) po

1) COc1ccc(-c2cn([C@@H]3O[C@H](C)[C@@H](O)[C@H]3O)c3ncnc(Nc4ccc(C(N)=O)cc4)c23)cc1 ... 0
2) CCOCc1ccc(Nc2ncnc3c2c(-c2ccccc2)cn3[C@@H]2O[C@H](C)[C@@H](O)[C@H]2O)cc1 ... 0.0
3) C[C@H]1O[C@@H](n2cc(-c3ccc(F)cc3)c3c(Nc4ccccc4)ncnc32)[C@H](O)[C@@H]1O ... 21.3
4) CCOc1ccc(Nc2ncnc3c2c(-c2ccccc2)cn3[C@@H]2O[C@H](C)[C@@H](O)[C@H]2O)cc1 ... 31.0
5) CCc1ccc(Nc2ncnc3c2c(-c2ccccc2)cn3[C@@H]2O[C@H](C)[C@@H](O)[C@H]2O)cc1 ... 10.7
6) C[C@H]1O[C@@H](n2cc(-c3ccc(CNC(N)=O)cc3)c3c(Nc4ccc(F)cc4)ncnc32)[C@H](O)[C@@H]1O ... 21.5
7) CCOC(=O)Cc1ccc(Nc2ncnc3c2c(-c2ccccc2)cn3[C@@H]2O[C@H](C)[C@@H](O)[C@H]2O)cc1 ... 2.9
